From: patent US20260035456A1

Biological target: T1, biotin-labeled mouse ADM (mouse, not fully specified; biotin label (named mouse ADM-C-biotin in Example 1.4; position of the biotin not stated for the other lots))
T1 construct: Synthetic peptide; also called mouse ADM-C-biotin; mADM-Biotin
T1 peptide: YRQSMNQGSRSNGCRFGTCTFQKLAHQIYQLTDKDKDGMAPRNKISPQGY
Test: BLI (Octet RED96e), as in Example 3
Recorded metric: kon (M⁻¹ s⁻¹)
# output: bare number, implied unit M⁻¹ s⁻¹

### Prompt Requested read-out: kon. Entry: Ab2004.Am39 (IgG1 antibody) (antibody, V domains shown, Expressed in CHO cells, human IgG1/kappa) VH: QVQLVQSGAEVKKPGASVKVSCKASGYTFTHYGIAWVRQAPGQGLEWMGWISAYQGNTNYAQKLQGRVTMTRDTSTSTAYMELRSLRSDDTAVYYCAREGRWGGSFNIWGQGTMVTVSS VL: DIQMTQSPSSLSASVGDRVTITCRASQGISSYLAWYQQKPGKAPKLLIYDASNLETGVPSRFSGSGSGTDFTFTISSLQPEDIATYYCQQYDDLDLTFGGGTKVEIKR
### Response 543000
